All figures here come from paper PMC3654864.

# assay.details: pH-responsive hydrolysis to emetine in phosphate buffer, quantified by HPLC
# Type: physicochemical
# assay.context: phosphate buffer pH 6.5, 37 °C, within 48 hours
recorded.endpoint: percent emetine released (hydrolysis to emetine) at pH 6.5

Query: Specify reported percent emetine released (hydrolysis to emetine) at pH 6.5 for the molecule shown: "CC[C@H]1CN2CCc3cc(OC)c(OC)cc3[C@@H]2C[C@@H]1C[C@@H]1c2cc(OC)c(OC)cc2CCN1C(=S)[S-].[Na+]"
Result: 13.2%

Query: Specify reported percent emetine released (hydrolysis to emetine) at pH 6.5 for the molecule shown: "CC[C@H]1CN2CCc3cc(OC)c(OC)cc3[C@@H]2C[C@@H]1C[C@@H]1c2cc(OC)c(OC)cc2CCN1C(=O)/C=C(/C)C(=O)O"
Result: ~80%

Query: Specify reported percent emetine released (hydrolysis to emetine) at pH 6.5 for the molecule shown: "CC[C@H]1CN2CCc3cc(OC)c(OC)cc3[C@@H]2C[C@@H]1C[C@@H]1c2cc(OC)c(OC)cc2CCN1C(=O)/C=C\C(=O)O"
Result: about 50%

Query: Specify reported percent emetine released (hydrolysis to emetine) at pH 6.5 for the molecule shown: "CC[C@H]1CN2CCc3cc(OC)c(OC)cc3[C@@H]2C[C@@H]1C[C@@H]1c2cc(OC)c(OC)cc2CCN1C(=O)/C=C(/C)C(=O)[O-].[Na+]"
Result: about 50%
